- System: Escherichia coli TOP10;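 also: peptides expressed intracellularly from a pBAD plasmid library in pooled LB shake-flask culture, induced with 0.3% L-arabinose, DNA abundance read by NGS, three biological replicates, DESeq2 with apeglm shrinkage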
- method: shrunken log2 fold change of peptide-encoding DNA abundance (4.5 h post-induction vs induction); higher = less antimicrobial activity (less host growth inhibition)
- study conditions: time post-induction: 4.5 h; library: site-saturation at positions 5, 18, 19, 20
Documented shrunken log2 fold change across a set of sequences
Response field accepts a number only; no unit should be typed.

item sequence	assay metric	observed result
RRIRPRPPRLPRPRPRPVLKPRP	shrunken log2 fold change	-0.267
RRIRSRPPRLPRPRPRPFQQPRP	shrunken log2 fold change	0.000179

Look up shrunken log2 fold change: RRIRARPPRLPRPRPRPQQAPRP
0.308

Look up shrunken log2 fold change: RRIRSRPPRLPRPRPRPHHDPRP
-0.759

Look up shrunken log2 fold change: RRIRIRPPRLPRPRPRPMQNPRP
0.112

Look up shrunken log2 fold change: RRIRCRPPRLPRPRPRPLHHPRP
-0.469

Look up shrunken log2 fold change: RRIRCRPPRLPRPRPRPHMSPRP
-0.193

Look up shrunken log2 fold change: RRIRFRPPRLPRPRPRPDHWPRP
-0.00426

These measurements were taken from the supplement of paper PMC9112550.
